Assay: protein stability index of a GFP-peptide fusion (yeast GPS) (PSI 1-4); higher = more stable; sorted into four equal gates, so the index is relative within each strain
Conditions: san1∆
Listed next: entries and their corresponding protein stability index.

entry-sequence: QLSQDEHSQVEQTCVKL [SRP72]
protein stability index: 3.1
//
entry-sequence: EVRGQVPVIESAGFETD [SNU114]
protein stability index: 1.49
//
entry-sequence: KLDSKKILPTDIQLKNL [SRP68]
protein stability index: 2.79
//
entry-sequence: VDIYTHFTSPIRRYCDV [DIS3]
protein stability index: 1.94
//
entry-sequence: ETDHANTENNDPDIPMT [IRR1]
protein stability index: 2.81
//
entry-sequence: DDSLNRLAQNDGLLKNV [RPS21A]
protein stability index: 3.16
//
entry-sequence: GLIMLNLQPASVINNYL [NUT1]
protein stability index: 1.15
//
entry-sequence: RELREVIELPLKNPEIF [RPT4]
protein stability index: 3.08
//
entry-sequence: LVSEARTLWPEFIPPDP [SSN8]
protein stability index: 2.73
//
entry-sequence: LKEQELVLYDAENDVIE [BRR2]
protein stability index: 2.99
//
entry-sequence: RLNENKKIGCYMFANLE [CSN12]
protein stability index: 3.25
//
entry-sequence: LTWLSSFSVCKIRCFRY [IRR1]
protein stability index: 1.58
//
entry-sequence: YDTQLKVSPEELPLVIT [ARP7]
protein stability index: 2.59
//
entry-sequence: MHDSNLQNNSDSESDSD [SKP1]
protein stability index: 3.06
//
entry-sequence: CWLSNIDIQTQDLNQRF [RRI1]
protein stability index: 3.24

* * *

Test: protein stability index of a GFP-peptide fusion (yeast GPS) (PSI 1-4); higher = more stable; sorted into four equal gates, so the index is relative within each strain
Settings: doa10∆

entry-sequence: HNGWVTSLATSAGQPNL [ASC1]
protein stability index: 2.32

entry-sequence: EVDEKPTETYSDVGGLD [RPT5]
protein stability index: 3.35

entry-sequence: HELPRYGITHGLTNWAA [RPL5]
protein stability index: 2.44

entry-sequence: RNPDIYTREFVEAIRRS [NUT2]
protein stability index: 2.42

entry-sequence: QRTTTGARVFGALKGAS [RPL5]
protein stability index: 2.88

entry-sequence: LKEQELVLYDAENDVIE [BRR2]
protein stability index: 3.24

entry-sequence: GGNSTQNTSNMNAGGLF [YGR119C/NUP57]
protein stability index: 3.26

entry-sequence: NGDKMPLKFKLGPLSYQ [YJR042W/NUP85]
protein stability index: 2.94

entry-sequence: LSEWEEYLKGSESQLNS [YCS4]
protein stability index: 3.44

entry-sequence: FIRLPHWPLNWYLILSI [RGR1]
protein stability index: 1.46

entry-sequence: KATAAKKAVVKGTNGKK [RPL25]
protein stability index: 3.3

entry-sequence: KLLKQPKFDVGALMALH [RPS1A]
protein stability index: 1.9

entry-sequence: YVDTATAKRKSRKRKPK [IRR1]
protein stability index: 3.17

entry-sequence: EPILGQITLTFISELCS [YML103C/NUP188]
protein stability index: 2.6

entry-sequence: HVLYKESKGNAFKHKRA [RPL19A]
protein stability index: 2.97

entry-sequence: IEKMSTIVQLCKKKEMS [YIL149C/MLP2]
protein stability index: 1.8

entry-sequence: SIEMEEETDDEDKQNIE [RRI2]
protein stability index: 3.25

entry-sequence: QEKNFQTGIFVYQNNIT [RPB5]
protein stability index: 2.49

entry-sequence: DALLNSTTEHINIDDLL [YJL039C/NUP192]
protein stability index: 2.47

entry-sequence: EPTYRLVRYGLAEKVEK [RPS24A]
protein stability index: 3.48

entry-sequence: KIKDVQQQIESNEEQRN [SMC3]
protein stability index: 3.22

entry-sequence: PLSRINENENFGYDIPL [YML103C/NUP188]
protein stability index: 3.02

entry-sequence: AETTFLQDVIALSIADD [RPC53]
protein stability index: 2.24

entry-sequence: QDLPKINDKRANLMLVM [SRB4]
protein stability index: 1.91

entry-sequence: IERYPSKVTKKHGAKKV [RPL27B]
protein stability index: 3.26

entry-sequence: RNNLPAKTFGASVRIFL [RPL33A]
protein stability index: 2.81

entry-sequence: NKYQIKKAVKELYEVDV [RPL25]
protein stability index: 3.03

entry-sequence: NETKKRNFLETVELQVG [RPL1A]
protein stability index: 2.96

entry-sequence: HVLNKVTLASILTTAVG [RPN1]
protein stability index: 1.72

entry-sequence: DIDGIMDNPRKLSKILR [SNU114]
protein stability index: 3.01
